TGT: JAK3 (Homo sapiens (Human))
Sequence (P52333 822-1111): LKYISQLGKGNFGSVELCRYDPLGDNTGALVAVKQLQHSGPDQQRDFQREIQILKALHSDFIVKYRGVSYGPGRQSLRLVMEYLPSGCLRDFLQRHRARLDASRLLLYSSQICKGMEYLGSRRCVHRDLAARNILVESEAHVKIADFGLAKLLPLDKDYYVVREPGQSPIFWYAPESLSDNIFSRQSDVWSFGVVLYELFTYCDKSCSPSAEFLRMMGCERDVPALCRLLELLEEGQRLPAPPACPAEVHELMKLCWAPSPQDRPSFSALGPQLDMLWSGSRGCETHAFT
TEST_PROTOCOL: Jak Biochemical HTRF Assay (JAK3)
TEST_PARAMETERS: recombinant GST-tagged catalytic domain, [ATP] 2.9 μM; given as range class
EXPERIMENTAL_READOUT: IC50

Completed entries (count: 3):
CCOC(=O)c1c[nH]c2ncnc(-c3cccc(NC(=O)C4=CCCCC4)c3)c12: 10 to 500 nM
CCOC(=O)c1c[nH]c2ncnc(-c3ccc4c(c3)CN(C(=O)OC(C)(C)C)C4=O)c12: 10 to 500 nM
CCOC(=O)c1c[nH]c2ncnc(-c3ccccc3N)c12: 10 to 500 nM

Q) Give the measured IC50 of CCOC(=O)c1c[nH]c2ncnc(-c3cnn(C)c3)c12 .
A) 10 to 500 nM

Q) Can you look up the measured IC50 of CCOC(=O)c1c[nH]c2ncnc(-c3cccc(NC(=O)C=C4CCCC4)c3)c12 for me?
A) 10 to 500 nM

Q) Could you share which IC50 value was measured for C=C(CNC(C)=O)C(=O)Nc1cccc(-c2ncnc3[nH]cc(C(=O)OCC)c23)c1 ?
A) < 10 nM

Q) Please report the recorded IC50 for CCOC(=O)c1c[nH]c2ncnc(-c3ccc4nnn(C)c4c3)c12 .
A) 10 to 500 nM

* * *

TGT: JAK2 (Homo sapiens (Human), UniProt O60674)
Sequence (O60674 849-1124): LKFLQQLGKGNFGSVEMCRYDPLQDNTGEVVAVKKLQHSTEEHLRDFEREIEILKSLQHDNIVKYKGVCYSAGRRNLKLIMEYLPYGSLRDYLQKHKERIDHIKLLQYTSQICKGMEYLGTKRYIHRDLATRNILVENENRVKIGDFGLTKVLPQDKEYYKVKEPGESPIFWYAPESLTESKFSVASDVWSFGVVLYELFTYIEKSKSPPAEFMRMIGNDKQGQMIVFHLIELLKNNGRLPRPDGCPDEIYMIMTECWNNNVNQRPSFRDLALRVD
TEST_PROTOCOL: Jak Biochemical HTRF Assay (JAK2)
TEST_PARAMETERS: recombinant GST-tagged catalytic domain, [ATP] 8.5 μM
Reported IC50 values are given for each entry in this list.

C=C(C)C(=O)N1CCc2ccc(-c3ncnc4[nH]cc(C(=O)OCC)c34)cc21: > 1500 nM
CCOC(=O)c1c[nH]c2ncnc(-c3ccc4[nH]ncc4c3)c12: 98 nM
COc1cccc(-c2c[nH]c3ncnc(-c4ccccc4)c23)c1: 93 nM
C=C(C)C(=O)Nc1cc(C#N)cc(-c2ncnc3[nH]cc(C(=O)OCC)c23)c1: > 1500 nM
CCOC(=O)c1c[nH]c2ncnc(-c3ccc4cn(C)nc4c3)c12: 273 nM

Q) Consider the compound shown here: C=C(CC)C(=O)Nc1cccc(-c2ncnc3[nH]cc(C(=O)OCC)c23)c1 What is its recorded IC50?
A) > 1500 nM

Q) Fill in: IC50 of CCOC(=O)c1c[nH]c2ncnc(-c3ccc(Cl)c(N)c3)c12 is ___
A) 125 nM

Q) Look at this compound and give its reported IC50. COc1ccc(F)cc1-c1c[nH]c2ncnc(-c3ccccc3)c12
A) 71 nM

Q) Given CCOC(=O)c1c[nH]c2ncnc(-c3cc4ccccc4o3)c12 , state its recorded IC50.
A) 61 nM

Q) # get_value(readout='IC50', item= CCOC(=O)c1c[nH]c2ncnc(-c3cccc(NC(=O)/C=C(/C)C(F)(F)F)c3)c12 )
A) > 1500 nM

Q) Data request, read-out IC50, for C=C(C)C(=O)Nc1cccc(-c2ncnc3[nH]cc(C(=O)OCC)c23)c1
A) > 1480 nM

* * *

TGT: JAK2 (Homo sapiens (Human))
TEST_PROTOCOL: Jak Biochemical HTRF Assay (JAK2)
TEST_PARAMETERS: recombinant GST-tagged catalytic domain, [ATP] 8.5 μM
# Lookup of reported IC50 keyed by entry

CCOC(=O)c1c[nH]c2ncnc(-c3cccc(NC(=O)/C(C)=C/CN(C)C)c3)c12: > 1500 nM
C=C(C)C(=O)Nc1cccc(-c2ncnc3[nH]cc(-c4cccnc4)c23)c1: > 1500 nM

// below: IC50 requested for another compound
Q) Report IC50 for C=C(Cl)C(=O)Nc1cccc(-c2ncnc3[nH]cc(C(=O)OCC)c23)c1 please.
A) > 1500 nM
